B1: library; numbered along this chain (parent)
chain: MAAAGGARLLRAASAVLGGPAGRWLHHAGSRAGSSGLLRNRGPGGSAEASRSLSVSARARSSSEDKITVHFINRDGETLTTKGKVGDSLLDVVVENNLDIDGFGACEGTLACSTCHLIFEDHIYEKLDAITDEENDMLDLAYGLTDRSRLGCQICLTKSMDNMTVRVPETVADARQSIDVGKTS

variants of: B1; assay: scaled log2 fold change in cell abundance, elesclomol vs control (0 = silent mean, 1 = nonsense mean) (scaled log2 ratio); higher = higher viability under elesclomol (loss of FDX1 cuproptosis function); conditions: with HEK293T FDX1 KO; elesclomol 40 nM; glucose 10 mM; 11 days;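 also: variant abundance is its share of total variant reads in each endpoint sample, from next-generation sequencing of the integrated ORF PCR-amplified out of genomic DNA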
MEASURED_ENDPOINT: scaled log2 fold change
Please state the value as a number alone, without comment.

INSERT INTO results (mutation_notation, reading) VALUES
  ('A129P', 0.0261),
  ('A172S', 0.922),
  ('H26L', 0.304),
  ('D146G', 0.974),
  ('L127W', 0.0443),
  ('G19C', -0.489),
  ('V55C', 0.374),
  ('Y142R', -1.11),
  ('S34H', -0.957),
  ('T109W', 0.253);

If you can, please state the reported scaled log2 fold change value of T114S .
0.997

Fill in: scaled log2 fold change of G151L is ___
0.743

For the variant L25H , what scaled log2 fold change is on record?
-0.423

Need scaled log2 fold change of L110A , thanks.
-0.448

Entry under review: K126I . Reported scaled log2 fold change?
-0.476

I have this variant here, S46F , and I need its recorded scaled log2 fold change.
0.769
